Consider the following compounds; for each one, report its pKi.
- assay_target: TSPO (Rattus norvegicus)
Answers are plain numbers, as −log10 of the molar value.

{"columns": ["structure_smiles", "pKi"],
 "data": [
  ["CCOC(=O)[C@@H](Cc1ccccc1)NC(=O)[C@H](CC(C)C)NC(=O)C(=O)c1c(-c2ccccc2)[nH]c2ccccc12", 6.36]
]}

Attention now shifts to the item below.
Entry under review: CC(C)C[C@H](NC(=O)C(=O)c1c(-c2ccccc2)[nH]c2ccccc12)C(=O)N[C@H](Cc1ccccc1)C(=O)O . Reported pKi?
6.12

----------
- Test system: U87MG cells
- test_description: Cell viability, Trypan blue exclusion assay
- Type: cell-based, human
- experimental_parameters: Homo sapiens, U-87 MG, 24 h, read-out: IC50, U87MG cell survival
- Procedure: Each experiment was performed in duplicate. […] Each experiment was performed in duplicate. The effects of compound treatment on U87MG cell viability were evaluated by Trypan blue exclusion assays. Briefly harvested cells were mixed with an equal volume of 0.4% trypan blue dye. For quantization of cell viability, blue and bright cells were counted, and viability was calculated as the percentage of live (bright) cells versus control set to 100%. […]
assay_metric: pIC50
Numbers only, as −log10 of the molar value.

Recall the recorded pIC50 for CCOC(=O)[C@@H](Cc1ccccc1)NC(=O)[C@H](CC(C)C)NC(=O)C(=O)c1c(-c2ccccc2)[nH]c2ccccc12 with U87MG cells and state it.
5.60
